Provenance of the data: patent US12617752B2

Field: Particle-size distribution (PDI). Provide a value for each of the compounds that follow.
# assay_explanation: Particle size and PDI of lipid nanoparticles by dynamic light scattering
# Type: physicochemical
# measurement_context: lipid nanoparticles with luciferase mRNA; ionizable lipid/cholesterol/DSPC/DMG-PEG2000 50/38.5/10/1.5 mol%
# Method: […] The particle size and particle size dispersity index (PDI) of the prepared lipid nanoparticles were measured using a Zetasizer Pro (purchased from Malvern Instruments Ltd) and a DynaPro NanoStar (purchased from Wyatt) dynamic light scattering instrument. […] This parameter was measured by the method of Quant-it™ RiboGreen RNA Assay (purchased from Invitrogen). […]
Numbers only.

Record excerpt, results attached:
CCCCCCCCCCOC(=O)CCCCCCCN(CCO)CCCCCC(C)(C)COC(=O)CC(CCCCCCC)CCCCCCC [19b] = 0.036
CCCCCCCC(CCCCCCC)COC(=O)CCCCC(C)(C)CCN(CCO)CCCCCCOC(=O)OCC(CCCCCCC)CCCCCCC [50a] = 0.12
CCCCCCCCCCCOC(=O)CCCCCN(CCO)CCCCCC(C)(C)CC(=O)OC(CCCCCCCC)CCCCCCCC [19a] = 0.035
CCCCCCCCCC(=O)OCC1(CCCCCN(CCCCCCCC(=O)OCC(CCCCCCC)CCCCCCC)C(=O)SCCCCN(C)C)CC1 [44b] = 0.15

// each compound listed below needs its Particle-size distribution (PDI)
1. CCCCCCCCCCC(=O)OCC1(CCCCCN(CCO)CCCCCCCC(=O)OC(CCCCCCCCC)CCCCCCCCC)CC1 [21b]
2. CCCCCCCCC(=O)OCC(C)(C)CCCCCCN(CCO)CCCCCCC(=O)OCC(CCCCCCCC)CCCCCCCC [110b]
3. CCCCCCCCCCC(=O)OCCCC(C)(C)CCCN(CCO)CCCCCCCCC(=O)OCC(CCCCCCC)CCCCCCC [96b]
4. CCCCCCCCCC(=O)OCCCC(C)(C)CCCN(CCO)CCCCCCC(=O)OCCCC(CCCCCC)CCCCCC [75b]
5. CCCCCCCCCC(=O)OCCCC(C)(C)CCCN(CCCCO)CCCCCCC(=O)OCCC(CCCCCCC)CCCCCCC [93b]
6. CCCCCCCCCCCOC(=O)CCCCCN(CCO)CCCCCCC(C)(C)C(=O)OC(CCCCCCCC)CCCCCCCC [3a]

Completion:
1. 0.051
2. 0.21
3. 0.15
4. 0.19
5. 0.10
6. 0.021
